Form field: Fluorescence quantum efficiency (FQE) (one value per entry).
- assay text: Absorption and emission spectra, fluorescence quantum efficiency in EtOH, PBS and lipid vesicles (MLV)
- Type: physicochemical
- particulars: in lipid vesicle suspensions

Illustrative cases are given below, each with its answer.
1) CCCCCN(CCCCC)c1ccc2c(c1)OCC(/C=C/c1c(F)c[n+](CCC[N+](CC)(CC)CC)c3ccccc13)=C2.[Br-].[Br-] = 0.10
2) CCCCN(CCCC)c1ccc2cc(/C=C/c3c(F)c[n+](CCC[N+](CC)(CC)CC)c4ccccc34)ccc2c1.[Br-].[Br-] [ElectroFluor630, Di-4-ANEQ (F) PTEA, reference compound] = 0.10

Ask: Note down Fluorescence quantum efficiency (FQE) recorded for CCCCCN(CCCCC)c1ccc2c(c1)OCC(/C=C/c1cc[n+](CCCS(=O)(=O)[O-])cc1F)=C2
Reply: 0.25
